Assay: qHTS assay for environmental chemicals that activate the Aryl hydrocarbon Receptor (AhR) signaling pathway (AID 651777); further: % of control where 0% means no effect; nearly all actives have a fitted effect of over 15% in size
Conditions: 1A2-DRE human hepatoma cells, luciferase, 24 h; stronger effect = higher value
From the text: National Center for Advancing Translational Sciences [NCATS] NIH Chemical Genomics Center [NCGC] U.S. Environmental Protection Agency [EPA] National Institutes of Environmental Health Sciences [NIEHS] National Toxicology Program [NTP] The Aryl hydrocarbon Receptor (AhR) plays a critical role in the development of cancer or neoplasm and its formation is most likely due to genetic mutations and the influence of environment. […]
Inconclusive results are not listed. Activity calls are given as the source filed them. The call rests on the fitted dose curve; in most records, active means well fitted activation curve with a large enough effect; inconclusive means small, poorly fitted or top-dose-only effect; inactive means flat fitted curve, though single readings scatter.
Quick list: activation per entry.

Query O=C(NC(=O)c1c(F)cccc1F)Nc1cc(Cl)c(OC(F)(F)C(F)C(F)(F)F)cc1Cl (stereo unspecified) yields activation of 0.163% (inactive)

The recorded activation for entry `CCCCCCCCCCCC[N+](C)(C)CCOc1ccccc1` equals -2.77% (inactive)

`CCC(=O)O[C@H]1CC[C@H]2[C@@H]3CCC4=CC(=O)CC[C@]4(C)[C@H]3CC[C@]12C` yielded activation of -0.665% (inactive)

These entries and their values trace back to PubChem BioAssay (NCATS).
